Biological target: AAK1 (Homo sapiens, UniProt Q2M2I8)
Construct: HA; expressed in transfected cells; host or cells: HEK293F
Sequence (Q2M2I8 1-863 isoform Q2M2I8-2): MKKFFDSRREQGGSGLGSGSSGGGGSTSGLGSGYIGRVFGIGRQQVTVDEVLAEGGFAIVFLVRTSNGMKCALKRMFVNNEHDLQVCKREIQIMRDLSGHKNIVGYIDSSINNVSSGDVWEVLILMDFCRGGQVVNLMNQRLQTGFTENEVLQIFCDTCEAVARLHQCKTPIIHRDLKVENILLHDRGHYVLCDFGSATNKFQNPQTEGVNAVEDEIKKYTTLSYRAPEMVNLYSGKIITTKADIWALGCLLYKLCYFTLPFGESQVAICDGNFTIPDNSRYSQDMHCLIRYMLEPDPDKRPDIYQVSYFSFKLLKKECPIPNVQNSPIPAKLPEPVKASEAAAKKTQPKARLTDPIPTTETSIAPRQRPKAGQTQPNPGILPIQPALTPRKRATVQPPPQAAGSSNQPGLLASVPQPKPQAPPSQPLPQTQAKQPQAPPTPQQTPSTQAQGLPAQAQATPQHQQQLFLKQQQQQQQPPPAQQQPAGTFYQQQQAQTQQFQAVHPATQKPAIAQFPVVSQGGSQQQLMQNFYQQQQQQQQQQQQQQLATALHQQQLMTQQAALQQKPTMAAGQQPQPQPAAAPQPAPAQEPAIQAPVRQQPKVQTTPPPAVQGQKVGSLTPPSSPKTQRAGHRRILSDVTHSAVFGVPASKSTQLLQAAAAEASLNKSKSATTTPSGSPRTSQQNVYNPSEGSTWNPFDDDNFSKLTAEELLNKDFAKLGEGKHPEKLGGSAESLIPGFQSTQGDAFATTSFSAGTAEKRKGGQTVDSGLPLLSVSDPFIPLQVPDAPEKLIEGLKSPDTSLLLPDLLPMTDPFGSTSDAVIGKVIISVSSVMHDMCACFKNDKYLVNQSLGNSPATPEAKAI
Test: HEK281 cell-based assay (phospho-mu2 Western blot in transfected HEK293F cells)
Conditions: 3 hours incubation, read-out: CBA IC50
For each entry below, report its IC50 value.

Completed entries (count: 4):
[2H]C([2H])([2H])Oc1ncccc1-c1cnc2ccc(N3CC[C@H](N(C)C(=O)OC(C)C)C3)nn12: ≤ 10 nM
CC(C)OC(=O)N1CCN(c2ccc3ncc(-c4cccnc4OC(F)F)n3n2)CC1: ≤ 100 nM
CC(C)CC(=O)N1CCC[C@H]1CNc1ccc2ncc(-c3cccc(C#N)c3)n2n1: ≤ 100 nM
COc1cnccc1-c1cnc2ccc(NCCOC3CCCC3)nn12: ≤ 1000 nM

Could you tell me IC50 for each of these compounds? They are listed below.
1. Fc1ncccc1-c1cnc2ccc(NCCOC3CCCC3)nn12
2. FCCCNc1ccc2ncc(-c3ccc(C4CCCN4)cc3)n2n1 (stereo not drawn)
3. CNCCOCc1ccc(-c2cnc3ccc(NCCC(C)(C)C)nn23)cc1
4. CCOC(=O)N1CCC[C@H]1CNc1ccc2ncc(-c3ccc(CN)cc3)n2n1
5. NCc1ccc(-c2cnc3ccc(NCCc4ccccc4F)nn23)cc1

Marked response:
1. ≤ 1000 nM
2. ≤ 100 nM
3. ≤ 100 nM
4. ≤ 10 nM
5. ≤ 100 nM

Could you tell me IC50 for each of these compounds? They are listed below.
1. O=C(N1CCCCC1)N1CCN(c2ccc3ncc(-c4ccccc4)n3n2)CC1
2. CCCCNc1ccc2ncc(-c3ccc(C(=O)NCCCN)cc3)n2n1
3. CCCCNc1ccc2ncc(-c3ccc(C(=O)NCCN)c(OC)c3)n2n1
4. CC(C)(C)OC(=O)N1CCN(c2ccc3ncc(I)n3n2)CC1
5. COc1ncccc1-c1cnc2ccc(N3CCN(C(=O)N4CCCC4)CC3)nn12
6. CC(C)(C)OC(=O)N1CCC[C@H]1CNc1ccc2ncc(C(F)(F)F)n2n1
7. CC(C)(C)OC(=O)N1CCN(c2ccc3ncc(-c4ccccc4)n3n2)CC1
8. CC(C)CC(=O)N1CCC[C@H]1CNc1ccc2ncc(-c3ccc(F)cc3)n2n1

Marked response:
["≤ 100 nM", "≤ 1000 nM", "≤ 1000 nM", "≤ 100 nM", "≤ 100 nM", "≤ 100 nM", "≤ 100 nM", "≤ 100 nM"]

Could you tell me IC50 for each of these compounds? They are listed below.
1. COc1cnccc1-c1cnc2ccc(NC[C@@H]3CCCN3C(=O)OC(C)C)nn12
2. Oc1cccc(-c2cnc3ccc(NCCOC4CCCC4)nn23)c1

Marked response:
≤ 10 nM
≤ 1000 nM

Data provenance: patent US8969565B2
